Provenance of the data: patent US9453014B2

Measurement Target: human full length HSD11 β 1 (Homo sapiens, UniProt P28845)
Construct: transient expression of human full length HSD11 β 1 expression vector; host or cells: CHO cells (transient transfection)
Sequence (P28845 whole entry): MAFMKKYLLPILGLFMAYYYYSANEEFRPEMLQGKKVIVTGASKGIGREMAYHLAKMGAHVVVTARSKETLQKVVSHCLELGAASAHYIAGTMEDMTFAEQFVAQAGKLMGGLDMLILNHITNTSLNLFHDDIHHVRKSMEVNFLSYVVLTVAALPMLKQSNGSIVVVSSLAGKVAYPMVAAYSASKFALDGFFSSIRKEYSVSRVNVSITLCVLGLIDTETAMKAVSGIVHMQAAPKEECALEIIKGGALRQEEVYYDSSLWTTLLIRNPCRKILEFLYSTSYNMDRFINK
Assay Name: In Vitro HSD11β1 Inhibition Assay
Format: cell-based
Conditions Used: CHO cells transiently expressing human HSD11β1; 200 nM cortisone+500 uM NADPH overnight; cortisone to cortisol by LC/MS-MS; read-out: 11βHSD1 (IC50)
pIC50: −log10 of the molar value.
Exercise: state measured pIC50 for each of the compounds provided.

The recorded pIC50 for entry CC(CC(=O)N1CCCC2C(C(=O)O)CCCC21)c1c[nH]c2cccc(-c3ccc(F)cc3)c12 (stereo not shown) [Compound 253] equals > 7.00

The recorded pIC50 for entry CC(CC(=O)N1CCCC2C(c3nnn[nH]3)CCCC21)c1c[nH]c2cccc(C3CC3)c12 (stereo not shown) equals < 6.60

The recorded pIC50 for entry CC1(O)CCN(C(=O)CCc2c[nH]c3ccccc23)C2CCCCC21 (stereo not shown) equals < 6.60

The recorded pIC50 for entry CC(C)C(CC(=O)N1CCC(C(=O)O)C2CCCCC21)c1c[nH]c2cc(F)ccc12 (single isomer, unassigned) [Example 177] equals 6.70 to 6.82

The recorded pIC50 for entry CC(CC(=O)N1CCCC2CCCCC21)c1c[nH]c2cccc(F)c12 (single isomer, unassigned) [Example 122] equals > 7.00

The recorded pIC50 for entry Cc1ccc2[nH]cc(CCC(=O)N3CCCC4CCCCC43)c2c1 (stereo not shown) equals 6.70 to 6.82

The recorded pIC50 for entry O=C(O)C1CCN(C(=O)CC(c2ccccc2)c2c[nH]c3cccc(F)c23)C2CCCCC12 (single isomer, unassigned) [Example 162] equals < 6.60
